- assaySummary: Solubility in various solvents (sonicated at 25° C., centrifuged, filtered, HPLC)
- Type: physicochemical
- studyConditions: organic solvent or mixture, thermodynamic from solid, solvent Dioxane, read-out: Solubility (mg/mL at 25° C.)
endpointName: solubility at 5 min (mg/mL)
// units = mg/mL; emit number, no label

Find the measured solubility at 5 min of C[C@H]1CN(C2COC2)CCN1c1ccc(Nc2cc(Br)cn(C)c2=O)nc1 [Compound 180] and report it.
44.7

====

- assaySummary: Solubility in various solvents (sonicated at 25° C., centrifuged, filtered, HPLC)
- Assay type: physicochemical
- studyConditions: organic solvent or mixture, thermodynamic from solid, solvent Ethanol, read-out: Solubility (mg/mL at 25° C.)
endpointName: solubility at 5 min (mg/mL)
// return numeric value only (unit: mg/mL, not printed)

• C[C@H]1CN(C2COC2)CCN1c1ccc(Nc2cc(Br)cn(C)c2=O)nc1 [Compound 180] = 1.52

Would you kindly look at the next entry?
Using the record for C[C@H]1CN(C2COC2)CCN1c1ccc(N)nc1 [Compound 141] , state its measured solubility at 5 min.
154

====

Entries and their measured solubility at 5 min follow.
- assaySummary: Solubility in various solvents (sonicated at 25° C., centrifuged, filtered, HPLC)
- Type: physicochemical
- studyConditions: organic solvent or mixture, thermodynamic from solid, solvent Dimethylformamide, read-out: Solubility (mg/mL at 25° C.)
Reply with just the number (in mg/mL).

• C[C@H]1CN(C2COC2)CCN1c1ccc(N)nc1 = 200

In the following, a different compound is considered.
Report solubility at 5 min, nothing else, for this compound: C[C@H]1CN(C2COC2)CCN1c1ccc(Nc2cc(Br)cn(C)c2=O)nc1
20.8

====

- assaySummary: Solubility in various solvents (sonicated at 25° C., centrifuged, filtered, HPLC)
- Type: physicochemical
- studyConditions: organic solvent or mixture, thermodynamic from solid, solvent Isopropanol, read-out: Solubility (mg/mL at 25° C.)
// reported solubility at 5 min per item
The response must be a number in mg/mL with no trailing unit.

* C[C@H]1CN(C2COC2)CCN1c1ccc(N)nc1 | 222

// switching to the query compound
Identify measured solubility at 5 min corresponding to C[C@H]1CN(C2COC2)CCN1c1ccc(Nc2cc(Br)cn(C)c2=O)nc1
2.65

====

- assaySummary: Solubility in various solvents (sonicated at 25° C., centrifuged, filtered, HPLC)
- Assay type: physicochemical
- studyConditions: organic solvent or mixture, thermodynamic from solid, solvent Petroleum ether, read-out: Solubility (mg/mL at 25° C.)
endpointName: solubility at 5 min (mg/mL)
Output spec: scalar in mg/mL, unitless text.

- C[C@H]1CN(C2COC2)CCN1c1ccc(Nc2cc(Br)cn(C)c2=O)nc1: 0.03

Let us move to another entry and its solubility at 5 min.
Using the record for C[C@H]1CN(C2COC2)CCN1c1ccc(N)nc1 , state its measured solubility at 5 min.
0.26

====

- assaySummary: Solubility in various solvents (sonicated at 25° C., centrifuged, filtered, HPLC)
- Assay type: physicochemical
- studyConditions: organic solvent or mixture, thermodynamic from solid, solvent Heptane, read-out: Solubility (mg/mL at 25° C.)
endpointName: solubility at 5 min (mg/mL)
Response body: numeric value in mg/mL, unit text excluded.

* C[C@H]1CN(C2COC2)CCN1c1ccc(N)nc1 | 0.32

Let us examine a further case.
Give solubility at 5 min for the following compound: C[C@H]1CN(C2COC2)CCN1c1ccc(Nc2cc(Br)cn(C)c2=O)nc1
0.03
